Target: Myosin IC heavy chain (Acanthamoeba castellanii)
experimental-readout: IC50

Cc1ccc2c(c1)C(=O)C1(O)CCN(c3ccccc3)C1=N2 (racemic) : > 150 µM

====

Biological target: Myosin heavy chain, non-muscle (Drosophila melanogaster, UniProt Q99323)
Sequence (Q99323 whole entry): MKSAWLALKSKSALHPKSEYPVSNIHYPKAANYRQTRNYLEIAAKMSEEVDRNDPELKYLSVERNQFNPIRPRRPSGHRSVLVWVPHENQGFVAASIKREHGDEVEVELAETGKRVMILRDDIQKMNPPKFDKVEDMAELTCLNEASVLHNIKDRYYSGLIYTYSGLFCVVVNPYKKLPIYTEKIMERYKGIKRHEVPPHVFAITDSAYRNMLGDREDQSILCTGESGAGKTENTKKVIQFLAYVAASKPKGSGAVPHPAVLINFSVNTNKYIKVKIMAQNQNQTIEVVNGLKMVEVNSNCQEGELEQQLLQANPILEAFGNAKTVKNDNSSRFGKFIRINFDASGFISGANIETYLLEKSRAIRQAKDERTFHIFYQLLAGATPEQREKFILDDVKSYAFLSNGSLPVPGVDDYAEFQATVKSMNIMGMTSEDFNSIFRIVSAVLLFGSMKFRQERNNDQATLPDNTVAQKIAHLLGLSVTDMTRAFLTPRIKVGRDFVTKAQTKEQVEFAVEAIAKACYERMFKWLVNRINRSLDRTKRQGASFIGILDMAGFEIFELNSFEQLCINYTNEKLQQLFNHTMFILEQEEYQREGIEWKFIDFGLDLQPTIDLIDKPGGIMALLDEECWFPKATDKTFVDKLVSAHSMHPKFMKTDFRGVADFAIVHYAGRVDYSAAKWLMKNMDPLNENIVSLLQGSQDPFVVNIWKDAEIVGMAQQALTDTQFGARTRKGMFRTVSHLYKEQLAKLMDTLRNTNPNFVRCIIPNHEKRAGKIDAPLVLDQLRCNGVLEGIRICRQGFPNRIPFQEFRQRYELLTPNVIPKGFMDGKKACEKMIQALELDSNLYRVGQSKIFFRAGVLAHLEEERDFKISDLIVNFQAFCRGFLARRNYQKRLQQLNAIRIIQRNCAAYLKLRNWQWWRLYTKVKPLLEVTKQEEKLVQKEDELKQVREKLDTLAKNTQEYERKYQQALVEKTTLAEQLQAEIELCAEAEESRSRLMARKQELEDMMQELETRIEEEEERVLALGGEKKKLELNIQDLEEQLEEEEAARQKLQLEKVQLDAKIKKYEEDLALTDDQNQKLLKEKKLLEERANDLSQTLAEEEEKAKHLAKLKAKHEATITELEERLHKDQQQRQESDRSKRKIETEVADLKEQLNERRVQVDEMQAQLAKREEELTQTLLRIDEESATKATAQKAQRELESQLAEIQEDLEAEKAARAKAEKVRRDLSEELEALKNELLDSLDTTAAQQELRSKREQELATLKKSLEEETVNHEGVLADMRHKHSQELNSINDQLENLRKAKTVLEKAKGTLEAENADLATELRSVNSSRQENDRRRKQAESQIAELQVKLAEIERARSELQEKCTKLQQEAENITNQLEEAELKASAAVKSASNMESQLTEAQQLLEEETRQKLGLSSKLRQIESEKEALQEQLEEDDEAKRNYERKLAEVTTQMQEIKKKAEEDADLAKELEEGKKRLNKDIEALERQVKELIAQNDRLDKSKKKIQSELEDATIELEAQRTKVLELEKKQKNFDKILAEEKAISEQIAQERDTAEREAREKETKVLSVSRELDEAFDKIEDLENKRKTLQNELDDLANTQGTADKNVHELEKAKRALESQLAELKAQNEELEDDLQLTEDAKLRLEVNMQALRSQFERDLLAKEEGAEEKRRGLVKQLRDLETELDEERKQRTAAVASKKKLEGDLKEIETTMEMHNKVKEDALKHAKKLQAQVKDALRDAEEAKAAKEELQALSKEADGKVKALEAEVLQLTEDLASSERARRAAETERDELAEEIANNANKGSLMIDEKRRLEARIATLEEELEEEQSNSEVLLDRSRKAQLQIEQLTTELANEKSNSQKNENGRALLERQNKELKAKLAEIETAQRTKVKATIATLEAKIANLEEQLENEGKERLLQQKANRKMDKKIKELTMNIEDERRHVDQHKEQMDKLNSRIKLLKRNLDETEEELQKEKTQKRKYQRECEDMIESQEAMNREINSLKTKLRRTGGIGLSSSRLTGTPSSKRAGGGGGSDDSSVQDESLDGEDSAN
experimental-readout: IC50

Cc1ccc2c(c1)C(=O)C1(O)CCN(c3ccccc3)C1=N2 (racemic) : > 200 µM

====

Biological target: Myosin-2 heavy chain (Dictyostelium discoideum) (UniProt P08799)
Sequence (P08799 whole entry): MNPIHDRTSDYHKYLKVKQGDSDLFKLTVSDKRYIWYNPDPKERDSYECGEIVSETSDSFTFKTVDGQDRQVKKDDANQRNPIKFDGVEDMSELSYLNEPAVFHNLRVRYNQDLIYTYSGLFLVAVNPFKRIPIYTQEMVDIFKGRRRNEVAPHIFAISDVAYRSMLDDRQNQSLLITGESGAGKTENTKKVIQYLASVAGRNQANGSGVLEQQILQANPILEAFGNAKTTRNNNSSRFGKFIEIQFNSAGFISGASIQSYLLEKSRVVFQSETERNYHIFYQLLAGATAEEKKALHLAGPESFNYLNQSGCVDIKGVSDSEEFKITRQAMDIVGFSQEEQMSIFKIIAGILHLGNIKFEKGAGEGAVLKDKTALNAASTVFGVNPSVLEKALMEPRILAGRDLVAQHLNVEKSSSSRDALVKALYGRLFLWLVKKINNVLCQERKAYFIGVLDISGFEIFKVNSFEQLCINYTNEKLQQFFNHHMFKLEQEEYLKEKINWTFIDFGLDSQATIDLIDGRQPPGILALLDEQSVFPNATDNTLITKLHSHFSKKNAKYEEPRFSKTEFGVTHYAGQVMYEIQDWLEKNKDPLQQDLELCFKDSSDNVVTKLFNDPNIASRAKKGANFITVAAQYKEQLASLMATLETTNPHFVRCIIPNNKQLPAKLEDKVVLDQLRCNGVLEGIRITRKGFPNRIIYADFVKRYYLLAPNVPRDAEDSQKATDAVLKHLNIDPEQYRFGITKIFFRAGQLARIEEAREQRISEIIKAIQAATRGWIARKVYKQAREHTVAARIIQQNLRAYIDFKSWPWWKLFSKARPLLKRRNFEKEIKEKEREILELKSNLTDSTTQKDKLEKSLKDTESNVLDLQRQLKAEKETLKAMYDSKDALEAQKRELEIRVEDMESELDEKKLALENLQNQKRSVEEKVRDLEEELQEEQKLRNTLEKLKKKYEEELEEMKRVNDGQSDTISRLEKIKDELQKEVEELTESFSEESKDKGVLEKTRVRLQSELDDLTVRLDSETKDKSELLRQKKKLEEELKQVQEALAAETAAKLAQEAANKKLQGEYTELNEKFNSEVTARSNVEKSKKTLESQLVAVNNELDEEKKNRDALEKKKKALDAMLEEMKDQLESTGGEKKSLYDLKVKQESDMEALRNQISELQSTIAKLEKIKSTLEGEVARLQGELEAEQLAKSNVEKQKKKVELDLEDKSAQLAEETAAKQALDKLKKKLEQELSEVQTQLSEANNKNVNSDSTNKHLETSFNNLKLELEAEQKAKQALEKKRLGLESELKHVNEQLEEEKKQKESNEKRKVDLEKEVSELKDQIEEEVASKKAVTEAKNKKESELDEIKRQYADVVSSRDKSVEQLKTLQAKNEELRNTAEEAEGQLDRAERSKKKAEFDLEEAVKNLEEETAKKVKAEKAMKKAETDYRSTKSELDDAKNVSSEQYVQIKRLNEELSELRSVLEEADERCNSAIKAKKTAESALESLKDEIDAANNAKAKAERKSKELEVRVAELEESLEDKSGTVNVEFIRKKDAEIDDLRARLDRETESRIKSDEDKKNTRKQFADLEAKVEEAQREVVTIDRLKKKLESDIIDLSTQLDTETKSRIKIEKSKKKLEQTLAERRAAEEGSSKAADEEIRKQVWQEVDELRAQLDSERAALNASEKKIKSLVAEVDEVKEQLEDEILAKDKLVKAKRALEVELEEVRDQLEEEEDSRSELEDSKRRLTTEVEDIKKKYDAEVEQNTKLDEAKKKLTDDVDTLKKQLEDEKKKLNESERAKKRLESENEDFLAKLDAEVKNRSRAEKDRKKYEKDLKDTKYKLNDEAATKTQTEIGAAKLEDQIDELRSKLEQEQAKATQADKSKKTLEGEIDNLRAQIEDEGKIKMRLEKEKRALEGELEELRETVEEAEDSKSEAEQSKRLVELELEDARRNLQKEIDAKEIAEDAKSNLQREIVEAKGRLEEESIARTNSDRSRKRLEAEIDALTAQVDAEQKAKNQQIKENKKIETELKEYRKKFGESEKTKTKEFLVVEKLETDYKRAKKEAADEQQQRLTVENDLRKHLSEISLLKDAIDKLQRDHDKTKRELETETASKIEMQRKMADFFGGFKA
Experiment: Inhibition of Dictyostelium discoideum myosin 2 ATPase activity at 50 uM relative to control
experimental-readout: inhibition

O=C1c2ccccc2N=C2N(c3ccccc3)CC[C@@]12O : 88%
Cc1cccc2c1N=C1N(c3ccccc3)CC[C@@]1(O)C2=O : 35%
Cc1ccc2c(c1)N=C1N(c3ccccc3)CC[C@@]1(O)C2=O : 90%
Cc1cccc2c1C(=O)[C@]1(O)CCN(c3ccccc3)C1=N2 : 88%

Data provenance is ChEMBL document CHEMBL4152288.
